# Tgt: PaNADK (NAD kinase from Pseudomonas aeruginosa) (Pseudomonas aeruginosa)
# Sequence (Q9HZC0 whole entry): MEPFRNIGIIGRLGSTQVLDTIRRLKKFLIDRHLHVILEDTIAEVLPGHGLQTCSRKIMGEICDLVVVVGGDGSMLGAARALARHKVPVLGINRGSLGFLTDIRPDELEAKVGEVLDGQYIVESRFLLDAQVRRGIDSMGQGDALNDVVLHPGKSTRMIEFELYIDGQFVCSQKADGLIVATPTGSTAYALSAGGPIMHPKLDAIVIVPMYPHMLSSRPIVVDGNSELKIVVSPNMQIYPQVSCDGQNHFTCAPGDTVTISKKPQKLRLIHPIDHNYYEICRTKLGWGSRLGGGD
# Experiment Notes: G6PDH-coupled enzyme assay, global competitive inhibition fit
Endpoint Label: pKi
Remember the convention: pKi equals -log10 of concentration in molar.

Enquiry: // lookup pKi for NC(=O)c1cccc([C@@H]2O[C@H](COCC#Cc3nc4c(N)ncnc4n3[C@@H]3O[C@H](CO)[C@@H](O)[C@H]3O)[C@@H](O)[C@H]2O)c1
Return: 5.34

---

# Tgt: LmNADK (NADK 1 from Listeria monocytogenes) (Listeria monocytogenes, UniProt Q8Y8D7)
# Sequence (Q8Y8D7 1-264): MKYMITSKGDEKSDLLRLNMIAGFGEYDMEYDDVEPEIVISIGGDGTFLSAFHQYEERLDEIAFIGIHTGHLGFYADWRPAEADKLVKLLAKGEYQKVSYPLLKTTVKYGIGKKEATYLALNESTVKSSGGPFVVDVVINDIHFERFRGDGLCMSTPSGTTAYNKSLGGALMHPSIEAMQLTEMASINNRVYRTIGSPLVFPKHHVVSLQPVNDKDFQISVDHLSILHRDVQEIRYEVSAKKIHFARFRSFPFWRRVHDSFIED
# Experiment Notes: enzyme inhibition
# Type: biochemical
Endpoint Label: Ki
Units required after the number.

Enquiry: What value of Ki has been reported for the following compound? NC(=O)c1cccc([C@@H]2O[C@H](COCC#Cc3nc4c(N)ncnc4n3[C@@H]3O[C@H](CO)[C@@H](O)[C@H]3O)[C@@H](O)[C@H]2O)c1
Return: 3.2 µM
